Where do the numbers come from? From patent US6376510B1.

# Test system: dogs
# ASSAY PROTOCOL: animal or person
# Assay type: in vivo
# RUN PARAMETERS: dog, in vivo
MEASURED PARAMETER: ΔBP (change in arterial blood pressure) (%)
Give bare numbers, in %.

COMPOUND: CC(=O)Oc1ccc(C[N+]2(C)C3CCCC2CC(OC(=O)C2CCC2C(=O)OC2CC4CCCC(C2)[N+]4(C)Cc2ccc(OC(C)=O)c(OC(C)=O)c2)C3)cc1OC(C)=O.[Br-].[Br-] (centres unmarked)
MEASUREMENT TARGET: dogs
UNIT OF MEASURE: %
ΔBP (change in arterial blood pressure): −5
//
COMPOUND: CC(=O)Oc1ccc(C[N+]2(C)C3CCCC2CC(OC(=O)CCCC(=O)OC2CC4CCCC(C2)[N+]4(C)Cc2ccc(OC(C)=O)c(OC(C)=O)c2)C3)cc1OC(C)=O.[Br-].[Br-] (centres unmarked)
MEASUREMENT TARGET: dogs
UNIT OF MEASURE: %
ΔBP (change in arterial blood pressure): −18
//
COMPOUND: CC(=O)Oc1ccc(C[N+]2(C)C3CCCC2CC(OC(=O)CCCCCCC(=O)OC2CC4CCCC(C2)[N+]4(C)Cc2ccc(OC(C)=O)c(OC(C)=O)c2)C3)cc1OC(C)=O.[Br-].[Br-] (centres unmarked)
MEASUREMENT TARGET: dogs
UNIT OF MEASURE: %
ΔBP (change in arterial blood pressure): −55
//
COMPOUND: COc1cc(C[N+]2(C)C3CCC2CC(OC(=O)C2C4C=CC(C4)C2C(=O)OC2CC4CCC(C2)[N+]4(C)Cc2ccc(OC(C)=O)c(OC)c2)C3)ccc1OC(C)=O.[Br-].[Br-] (centres unmarked)
MEASUREMENT TARGET: dogs
UNIT OF MEASURE: %
ΔBP (change in arterial blood pressure): −25

Let's switch to this compound now.
ΔBP (change in arterial blood pressure) reported for this compound C=CC[N+]1([C@H]2C[C@H]3[C@@H]4CC[C@H]5C[C@H](O)[C@@H](N6CCOCC6)C[C@]5(C)[C@H]4CC[C@]3(C)[C@H]2OC(C)=O)CCCC1 [Rocuronium, reference compound] : 0

---

# Test system: anesthetized rats (evoked responses of anterior tibial muscle)
# ASSAY PROTOCOL: In vivo neuromuscular block and cardiovascular side effects, anesthetized rat (Example 8, Table 3)
# RUN PARAMETERS: rat; time to 80-85% neuromuscular block
MEASURED PARAMETER: Onset
Numeric answer plus unit only.

Dear colleague, could you send me Onset for each of the items below? Thanks.
1. CC(=O)Oc1ccc(C[N+]2(C)C3CCC2CC(OC(=O)C2C4C=CC(C4)C2C(=O)OC2CC4CCC(C2)[N+]4(C)Cc2ccc(OC(C)=O)c(OC(C)=O)c2)C3)cc1OC(C)=O.[Br-].[Br-] (stereo not drawn) [bis[N-(3,4-diacetoxybenzyl)tropanium-3α-yl]trans-3,6-endomet]
2. CCC(=O)Oc1ccc(C[N+]2(C)C3CCCC2CC(OC(=O)CCCC(=O)OC2CC4CCCC(C2)[N+]4(C)Cc2ccc(OC(=O)CC)c(OC(=O)CC)c2)C3)cc1OC(=O)CC.[Br-].[Br-] (centres unmarked)
3. C[N+]1(C)[C@@H]2CC[C@H]1C[C@@H](OC(=O)CCCC(=O)O[C@H]1C[C@H]3CC[C@@H](C1)[N+]3(C)C)C2.[I-].[I-] [reference compound]
4. CC(=O)Oc1ccc(C[N+]2(C)[C@@H]3CC[C@H]2C[C@@H](OC(=O)C2CCC2C(=O)O[C@H]2C[C@H]4CC[C@@H](C2)[N+]4(C)Cc2ccc(OC(C)=O)c(OC(C)=O)c2)C3)cc1OC(C)=O.[Br-].[Br-] (some centres unmarked)

1: 0.65 min; 2: 0.55 min; 3: 1.2 min; 4: 0.7 min

Value (Onset, anesthetized rats (evoked responses of anterior tibial muscle)) for record COc1cc(C[N+]2(C)[C@@H]3CC[C@H]2C[C@@H](OC(=O)CCCCCCCCCC(=O)O[C@H]2C[C@H]4CC[C@@H](C2)[N+]4(C)Cc2cc(OC)c(OC(C)=O)c(OC)c2)C3)cc(OC)c1OC(C)=O.[Br-].[Br-] (some centres unmarked) = 0.4 min
